Data origin, for the record: patent US7713994B2

Quick list: IC50 per entry.
# System: BT474
# EXPERIMENT_DESCRIPTION: Cytotoxicity assay (SRB), BT474
# Assay type: cell-based
# CONDITION_DETAILS: Homo sapiens, BT-474, 144 h, BT474 cells, 6 days, SRB; read-out: In Vitro Cellular Activity IC50 BT474

- COMPOUND_SMILES: "O=C1NC(=O)c2ccc(I)cc2/C1=C/Nc1ccc(CN2CCC(O)CC2)cc1"
  TARGET_OR_TEST_SYSTEM: "BT474"
  IC50: "1.6 µM"
- COMPOUND_SMILES: "CN1CCN(c2ncc(N/C=C3\\C(=O)NC(=O)c4ccc(-c5ccoc5)cc43)cn2)CC1"
  TARGET_OR_TEST_SYSTEM: "BT474"
  IC50: "2.49 µM"
- COMPOUND_SMILES: "CN1CCN(c2ccc(N/C=C3\\C(=O)NC(C)(C)c4ccc(Br)cc43)cc2)CC1"
  TARGET_OR_TEST_SYSTEM: "BT474"
  IC50: "9.3 µM"
- COMPOUND_SMILES: "COc1ccc(-c2ccc3c(c2)C(=CNCc2ccc(O)c(O)c2)C(=O)NC3=O)cc1OC"
  TARGET_OR_TEST_SYSTEM: "BT474"
  IC50: "35.8 µM"
- COMPOUND_SMILES: "CC(=O)c1ccc(-c2ccc3c(c2)C(=CNc2ccc(N4CCN(C)CC4)cc2)C(=O)NC3=O)cc1"
  TARGET_OR_TEST_SYSTEM: "BT474"
  IC50: "3.3 µM"
- COMPOUND_SMILES: "CN1CCN(c2ccc(N/C=C3\\C(=O)NC(=O)c4ccc(Br)cc43)nc2)CC1"
  TARGET_OR_TEST_SYSTEM: "BT474"
  IC50: "3.7 µM"
- COMPOUND_SMILES: "O=C1NC(=O)c2ccc(I)cc2/C1=C/Nc1ccc(N2CCN(CCO)CC2)cc1"
  TARGET_OR_TEST_SYSTEM: "BT474"
  IC50: "4.45 µM"
- COMPOUND_SMILES: "O=C1NC(=O)c2ccc(-c3ccc(Cl)cc3Cl)cc2C1=CNCc1ccc(O)c(O)c1"
  TARGET_OR_TEST_SYSTEM: "BT474"
  IC50: "21.4 µM"
